# Assay Notes: COS7 lysate on small-molecule microarray, probe aHis, 635 nm (AID 1123);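 note: z-score combines 667nm fluorescence intensity with signal-to-noise per printed compound spot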
# Recorded Conditions: COS7 cell lysate, fluorescence, higher = more signal
Reported composite z-score values for a set of compounds
Answer using only a numeral; do not append any unit.

{"Compound": "CC(C)(C)OC(=O)CC[C@]1(C(=O)O)N=C(c2ccc(OCCCO)cc2)O[C@H]1c1ccccc1CN=[N+]=[N-]", "composite z-score": 0.811}

For `O=C1O[C@@H](c2ccccc2)[C@@H](c2ccccc2)N2[C@@H](c3ccccc3OCCO)[C@]3(C(=O)Nc4ccc(C#CC5=CCCCC5)cc43)[C@@H](C(=O)NC[C@H](O)c3ccccc3)[C@H]12` the compound record lists composite z-score as 0.363

For O=C1OCC=C[C@H]2OC34C=CCN(Cn5nnc6ccccc65)C(=O)[C@H]3N(CCCCCCO)C(=O)[C@@H]4[C@@H]12 (stereo partly drawn) the compound record lists composite z-score as 0.718

====

# Tested on: Sonic hedgehog protein (Shh)
# Assay Notes: small-molecule binders of Shh protein, primary screen, biochemical, small-molecule microarray, 635/667 nm fluorescence (AID 1151);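 note: Shh protein binding to compounds spotted on small-molecule microarray slides; score combines spot fluorescence intensity with signal-to-noise across triplicate slides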
# Recorded Conditions: small-molecule microarray binding, 635 nm fluorescence; higher = more signal
Reported composite z-score values for a set of molecules

{"Molecule": "NC(=O)NCC#Cc1ccc2c(c1)[C@]1(C(=O)N2)[C@H](c2ccc(O)cc2)N2[C@H](c3ccccc3)[C@H](c3ccccc3)OC(=O)[C@H]2[C@@H]1C(=O)Nc1nc2ccccc2s1", "composite z-score": 1.09}
{"Molecule": "[N-]=[N+]=Nc1ccccc1C[C@@]1(C(=O)O)N=C(c2ccc(OCCCO)cc2)O[C@@H]1c1ccccc1", "composite z-score": -0.0424}
{"Molecule": "COC(=O)[C@@]1(Cc2ccccc2)[C@H]2c3cc(C(=O)N4CCCC4)[nH]c3C[C@H]2CN1C(=O)c1ccccc1", "composite z-score": -0.786}
{"Molecule": "CC(C)C(=C=CC[C@@H](O)c1ccccc1OCCO)C[C@@H](O)COCc1ccccc1", "composite z-score": 1.98}
{"Molecule": "COc1ccc(C(O)C2C=CC3C(=O)N(C)C(=O)C3N2N2CCCCC2)cc1 (centres undefined)", "composite z-score": -0.381}
{"Molecule": "C=CCNC(=O)[C@H]1[C@@H]2C(=O)O[C@@H](c3ccccc3)[C@@H](c3ccccc3)N2[C@@H](c2ccccc2OCCO)[C@]12C(=O)N(C(=O)OCCOC)c1ccc(C#CC3=CCCCC3)cc12", "composite z-score": 0.826}
{"Molecule": "CN1C2C=C(CCCO)C(C3C(=O)N(C(N)=O)C(=O)C32)C1c1cccs1 (centres undefined)", "composite z-score": 0.279}
{"Molecule": "CC(C)C(O)C1C=CC2C(=O)N(C)C(=O)C2N1N(c1ccccc1)c1ccccc1 (centres undefined)", "composite z-score": -1.28}

For `NC(=O)NCC#Cc1ccc2c(c1)[C@]1(C(=O)N2)[C@H](C(=O)O)[C@H]2C(=O)O[C@H](c3ccccc3)[C@H](c3ccccc3)N2[C@@H]1c1ccccc1OCCO` the molecule record lists composite z-score as 1.41

For `CCOC(=O)C1=CC[C@@H](c2ccc([N+](=O)[O-])cc2)N(S(=O)(=O)c2ccc(C)cc2)[C@H]1c1ccccc1` the molecule record lists composite z-score as 1.39

For `CC(C)CNC(=O)[C@@H]1c2ccccc2C(=O)N(Cc2cc(F)cc(C(F)(F)F)c2)[C@H]1c1ccc(CO)cc1` the molecule record lists composite z-score as 0.465

For `COCCOC(=O)N1C(=O)[C@@]2(c3cc(C#CC4(O)CCCCCC4)ccc31)[C@H](C(N)=O)[C@H]1C(=O)O[C@H](c3ccccc3)[C@H](c3ccccc3)N1[C@@H]2c1ccccc1OCCO` the molecule record lists composite z-score as 1.34

For `C=CC[C@@H](OC(=O)Nc1ccc(OC)cc1)c1ccc(OCCO)cc1` the molecule record lists composite z-score as -0.49

For `COCCOC(=O)N1C(=O)[C@@]2(c3cc(C#CCNC(N)=O)ccc31)[C@H](C(=O)N1CCCCCCC1)[C@H]1C(=O)O[C@H](c3ccccc3)[C@H](c3ccccc3)N1[C@@H]2c1ccc(O)cc1` the molecule record lists composite z-score as 1.12

====

# Assay Notes: small-molecule binders of probe aNOTCH2, primary screen, biochemical, small-molecule microarray, 635/667 nm fluorescence (AID 1121);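 note: score merges feature fluorescence read at 667 nm with its signal to noise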
# Recorded Conditions: higher = more signal
Reported composite z-score values for a set of compounds

Past entries and their recorded results:
{"Compound": "CC(C)(C)OC(=O)CC[C@]1(C(=O)NCCN2CCOCC2)N=C(c2ccc(OCCCO)cc2)O[C@H]1c1ccccc1", "Measured Attribute": "composite z-score", "Experimental Result": -0.075}
{"Compound": "CCOc1cc(C(O)C2C=CC3C(=O)N(C4CCCCC4)C(=O)C3N2Nc2ccc(OC)cc2)ccc1O (stereo not drawn)", "Measured Attribute": "composite z-score", "Experimental Result": 0.0791}
{"Compound": "C=CC[C@H](OC(=O)Nc1ccc(OC)cc1)c1ccc(O)c2ccccc12", "Measured Attribute": "composite z-score", "Experimental Result": -0.124}
{"Compound": "CO[C@H]1O[C@H](CO)[C@@H](OC(=O)c2ccc(Br)cc2)[C@@H]2OC(=O)[C@@H](Cc3ccc4ccccc4c3)C/C=C/C[C@H](Cc3ccc4ccccc4c3)C(=O)O[C@@H]12", "Measured Attribute": "composite z-score", "Experimental Result": 0.0043}
{"Compound": "COC(=O)[C@@]1(Cc2ccc(OC)cc2)[C@H]2c3cc(C(=O)N(C)C)n(Cc4ccccc4)c3C[C@H]2CN1C(=O)c1ccccc1", "Measured Attribute": "composite z-score", "Experimental Result": -0.0505}
{"Compound": "CCOC(=O)C1=CC[C@@H](c2ccccc2)N(S(=O)(=O)c2ccc(C)cc2)C1", "Measured Attribute": "composite z-score", "Experimental Result": -0.0176}
{"Compound": "CN(C)CCCNC(=O)[C@@H]1c2ccccc2C(=O)N(Cc2ccc(OC(F)(F)F)cc2)[C@H]1c1ccc(CO)cc1", "Measured Attribute": "composite z-score", "Experimental Result": -0.115}

For `C[N+](C)(C)CCCC[C@@H]1NC(=O)[C@@H]2C[C@H](C(=O)O)[C@H](c3ccc(O)cc3)N2C1=O` the compound record lists composite z-score as -0.0798

====

Reported composite z-score values for a set of molecules
# Assay Notes: anti-His antibody binders, primary screen, artefact control for SMM control protein annotation, biochemical, small-molecule microarray, 635 nm fluorescence (AID 1128);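 note: score merges feature fluorescence with signal-to-noise for each printed compound spot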
# Recorded Conditions: anti-His Alexa647 antibody binding, higher = more signal

Past entries and their recorded results:
{"Molecule": "CC(CO)N1C(=O)[C@@H]2C3C(=O)OCCC/C=C\\[C@H]3OC23C=CCN(Cn2nnc4ccccc42)C(=O)[C@@H]13 (some centres not stated)", "composite z-score": 3.15}
{"Molecule": "O=C1NC(=O)C2C1C=CC(C(O)c1ccc3c(c1)OCO3)N2Nc1ccccn1 (configuration not stated)", "composite z-score": 0.942}
{"Molecule": "C=CCN1C(=O)[C@@]2(O[C@@H](CCn3cc([C@H](O)c4ccccc4)nn3)[C@H]([Si](C)(C)c3ccc(OC)cc3)[C@H]2C)c2ccccc21", "composite z-score": 0.351}
{"Molecule": "O=C(CS)NCCCCCCNC(=O)[C@@H]1C[C@@H]2C(=O)N3CCC[C@H]3C(=O)N2[C@@H]1c1cccc(OCCO)c1", "composite z-score": 0.824}
{"Molecule": "CCCNC(=O)[C@@]1(c2ccc([N+](=O)[O-])cc2)CC(=O)N(C2CCCCC2)[C@@H]1c1ccc(CO)cc1I", "composite z-score": 2.18}
{"Molecule": "CCOC(=O)C1=CC[C@@H](c2ccc([N+](=O)[O-])cc2)N(S(=O)(=O)c2ccc(C)cc2)[C@H]1c1ccccc1", "composite z-score": 1.89}

Shift focus to the following entry.
For `O=C1O[C@@H](c2ccccc2)[C@@H](c2ccccc2)N2[C@@H](c3ccccc3OCCO)[C@]3(C(=O)Nc4ccc(C#CCCO)cc43)[C@@H](C(=O)N3CCN(c4ncccn4)CC3)[C@H]12` the molecule record lists composite z-score as 1.72

====

# Assay Notes: RPMI8226 myeloma cell viability, profiling panel, resazurin fluorescence, basal, 24 h, PK04 Diversity Set (AID 1180);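 note: RPMI8826 multiple myeloma cell line at 5000 cells per well; test concentration not given here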
# Recorded Conditions: higher = more signal
Binary classification by z-score, with 0.3 as an inclusive lower bound for YES; all other cases are NO.

{"Compound": "Cc1c(NC(=O)/C(C#N)=C/C=C/c2ccc(N(C)C)cc2)c(=O)n(-c2ccccc2)n1C", "Class Assignment": "YES"}
{"Compound": "CCOC(=O)C1=CC[C@@H](c2cc(Cl)ccc2Cl)N(S(=O)(=O)c2ccc(C)cc2)[C@H]1c1ccc(OC)cc1", "Class Assignment": "NO"}
{"Compound": "CC(C)C(CO)N1C(=O)[C@]2(C)C3C(=O)OCCC/C=C\\[C@H]3OC23C=CCN(c2ccc(Cl)cc2)C(=O)[C@@H]13 (some centres not stated)", "Class Assignment": "NO"}
{"Compound": "COC(=O)C[C@H]1O[C@]2(C(=O)N(C)c3ccccc32)[C@@H](C)[C@@H]1[Si](C)(C)c1ccc(C)cc1", "Class Assignment": "YES"}
{"Compound": "COCCOC(=O)N1C(=O)[C@@]2(c3ccccc31)[C@H](C(=O)N1CCN(c3ncccn3)CC1)[C@H]1C(=O)O[C@H](c3ccccc3)[C@H](c3ccccc3)N1[C@@H]2c1ccc(OCCO)cc1", "Class Assignment": "NO"}

# input for lookup
API: above_or_equal(metric=z-score, cutoff=0.3) for item `O=C(NC1CC1)[C@@H]1c2ccccc2C(=O)N(Cc2ccccc2)[C@H]1c1ccc(CO)cc1`
YES
